Where do the numbers come from? From ChEMBL document CHEMBL4033622.

tested on: A549; test: Cytotoxicity against human A549 cells after 36 hrs by CCK8 assay; type: functional, cell-based; details: A549, 36 h
Field: label. Allowed values: True (IC50 < 2 µM) or False (IC50 >= 2 µM).

- Cc1ccc(-c2nn(Cc3ccccc3)cc2-c2nc3c4cccnc4c4ncccc4c3[nH]2)cc1: False

Q) A record lists "Clc1ccc(-c2nn(Cc3ccccc3)cc2-c2nc3c4cccnc4c4ncccc4c3[nH]2)cc1" . Is its IC50 below 2 µM?
A) False

Q) A record lists "Fc1ccc(-c2nn(Cc3ccccc3)cc2-c2nc3c4cccnc4c4ncccc4c3[nH]2)cc1" . Is its IC50 below 2 µM?
A) True

Q) A record lists "Brc1ccc(-c2nc3c4cccnc4c4ncccc4c3[nH]2)cc1" . Is its IC50 below 2 µM?
A) True

Q) A record lists "Brc1ccc(-c2nn(Cc3ccccc3)cc2-c2nc3c4cccnc4c4ncccc4c3[nH]2)cc1" . Is its IC50 below 2 µM?
A) True

----------
organism: Homo sapiens; assay: Binding affinity to human telomeric 26 G-quadruplex DNA up to 20 uM after 24 hrs by SYBR gold staining based electrophoretic mobility shift assay
The source made the active and inactive calls. No cut-off for these calls is given here.
Result category, one only: 1 (yes) (active), 0 (no) (inactive)

Illustrative cases are given below, each with its answer.
* Cc1ccc(-c2nn(Cc3ccccc3)cc2-c2nc3c4cccnc4c4ncccc4c3[nH]2)cc1 | 0 (no)
* Clc1ccc(-c2nn(Cc3ccccc3)cc2-c2nc3c4cccnc4c4ncccc4c3[nH]2)cc1 | 0 (no)
* Fc1ccc(-c2nn(Cc3ccccc3)cc2-c2nc3c4cccnc4c4ncccc4c3[nH]2)cc1 | 0 (no)
* Brc1ccc(-c2nc3c4cccnc4c4ncccc4c3[nH]2)cc1 | 0 (no)

Now look at this entry.
Q) Returns: the outcome recorded for "Brc1ccc(-c2nn(Cc3ccccc3)cc2-c2nc3c4cccnc4c4ncccc4c3[nH]2)cc1" in this assay.
A) 1 (yes)

----------
experiment: Selectivity index, ratio of IC50 for human MRC5 cells to IC50 for human A549 cells; type: functional
Kindly return class 1 if reported Ratio IC50 is no lower than 2; return class 0 if it is lower.

Illustrative cases are given below, each with its answer.
* Cc1ccc(-c2nn(Cc3ccccc3)cc2-c2nc3c4cccnc4c4ncccc4c3[nH]2)cc1 | class 0
* Brc1ccc(-c2nn(Cc3ccccc3)cc2-c2nc3c4cccnc4c4ncccc4c3[nH]2)cc1 | class 1
* Brc1ccc(-c2nc3c4cccnc4c4ncccc4c3[nH]2)cc1 | class 1

Now look at this entry.
Q) Decide: is the reported value of Ratio IC50 for "Fc1ccc(-c2nn(Cc3ccccc3)cc2-c2nc3c4cccnc4c4ncccc4c3[nH]2)cc1" equal to or greater than 2?
A) class 1

----------
species on record: Homo sapiens; experiment: Binding affinity to human telomeric 26 G-quadruplex DNA assessed as change in melting temperature at drug/DNA ratio of 1:10 by UV spectrophotometry (reference value: 39.34 degC)
parameter measured: ΔTm
Phrase the answer as number then unit, nothing more needed.

Worked examples follow.
• Clc1ccc(-c2nn(Cc3ccccc3)cc2-c2nc3c4cccnc4c4ncccc4c3[nH]2)cc1 = 13.5 °C
• Brc1ccc(-c2nc3c4cccnc4c4ncccc4c3[nH]2)cc1 = 11 °C
• Cc1ccc(-c2nn(Cc3ccccc3)cc2-c2nc3c4cccnc4c4ncccc4c3[nH]2)cc1 = 16.3 °C
• Brc1ccc(-c2nn(Cc3ccccc3)cc2-c2nc3c4cccnc4c4ncccc4c3[nH]2)cc1 = 20.5 °C

Briefly, ΔTm measured for "Fc1ccc(-c2nn(Cc3ccccc3)cc2-c2nc3c4cccnc4c4ncccc4c3[nH]2)cc1" : 12.4 °C
